Biological target: TNFα / TNFα receptor (TNFα R1/Fc) (Homo sapiens)
Construct: purchased R&D Systems
Sequence (P01375 77-233 limits assumed, species assumed): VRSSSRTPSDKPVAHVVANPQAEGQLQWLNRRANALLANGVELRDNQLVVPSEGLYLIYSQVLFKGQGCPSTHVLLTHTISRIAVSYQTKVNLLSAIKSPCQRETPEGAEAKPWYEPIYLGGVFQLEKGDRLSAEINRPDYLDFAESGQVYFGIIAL
Assay: Inhibition of binding of TNFα to the TNFα receptor (plate ELISA competition)
Conditions: Table 2; read-out: Activity (IC50, inhibition of TNFα binding to TNFα R1/Fc)
Procedure: The compounds listed in Table 2 below were assayed for ability to inhibit binding of TNFα to the TNFα receptor (TNFα R1/Fc). The assays were performed as described in the following procedure: TNFα (R&D Systems) was coated on high binding plate wells (Corning 96-well) at a single uniform concentration of 15 nM, 100 μL/well in PBS. […] The TMB reaction was stopped with the addition of 0.5N HCl and then the plate was read for absorbance at 450 nm.
pIC50: −log10 of the molar value. Numbered stars: 1 amine (or outer) side, 2 acyl side, 3 side chain; on linkers, the order of the positions; unused ones are H or OH. Bridge positions count the residues as written; N and C are the ends. Square brackets hold non-standard residues; d marks the D form. Peptide text beside a SMILES is read from it. dPhe(2-CF3) = N[C@H](Cc1ccccc1C(F)(F)F)C(=O)O; Bip = N[C@@H](Cc1ccc(-c2ccccc2)cc1)C(=O)O; Phe(4-NH2) = Nc1ccc(C[C@H](N)C(=O)O)cc1; d(hPhe) = N[C@H](CCc1ccccc1)C(=O)O; d2Thi = N[C@H](Cc1cccs1)C(=O)O; Suc = O=C(CCC(=O)[*:2])[*:1]
Listed below: pIC50 values for each entry.

Ask: GET /values?readout=pIC50&item= O=C1CCC(=O)N[C@H](Cc2cccs2)C(=O)N[C@@H](Cc2ccc(-c3ccccc3)cc2)C(=O)N[C@H](Cc2ccccc2C(F)(F)F)C(=O)N[C@H](C(=O)O)Cc2ccc(cc2)N1 [Compound 77] ([d2Thi][Bip][dPhe(2-CF3)][Phe(4-NH2)]-OH; linker N-4 via Suc)
Reply: 4.00 to 4.52

Ask: GET /values?readout=pIC50&item= "O=C1COc2ccc(cc2)C[C@@H](C(=O)NCCO)NC(=O)[C@@H](CCc2ccccc2)NC(=O)[C@H](Cc2ccc(-c3ccccc3)cc2)NC(=O)[C@@H](Cc2cccs2)N1"
Reply: 4.52 to 5.00

Ask: GET /values?readout=pIC50&item= O=C(O)CNC(=O)[C@@H]1Cc2ccc(cc2)NC(=O)CCC(=O)N[C@H](Cc2ccccc2)C(=O)N[C@@H](Cc2ccc(-c3ccccc3)cc2)C(=O)N[C@H](CCc2ccccc2)C(=O)N1 [Compound 462] ([dF][Bip][d(hPhe)][Phe(4-NH2)]G-OH; linker N-4 via Suc)
Reply: < 4.00

Ask: GET /values?readout=pIC50&item= COC(=O)[C@H](CC(=O)O)NC(=O)[C@@H]1Cc2ccc(cc2)NC(=O)CCC(=O)N[C@H](Cc2cccs2)C(=O)N[C@@H](Cc2ccc(-c3ccccc3)cc2)C(=O)N[C@H](Cc2ccccc2)C(=O)N1 [Compound 29] ([d2Thi][Bip][dF][Phe(4-NH2)]D-OMe; linker N-4 via Suc)
Reply: > 5.00

----------
Tested on: rat paw edema model
Test: Rat paw edema model (carrageenan), anti-inflammatory activity
Type: in vivo, Sprague-Dawley (SD) rats
Settings: Table 6; 1 mg/kg IV; 2 h post-carrageenan
Listed below: Change in Paw Volume values for each entry.
Numeric only. Scale: mL

Worked examples follow.
>  <compound>
CC(C)(C)Oc1ccc(C[C@@H]2NC(=O)[C@@H](Cc3ccc(-c4ccccc4)cc3)NC(=O)[C@H](Cc3cccs3)NC(=O)COc3ccc(cc3)C[C@@H](C(=O)O)NC2=O)cc1 [Compound 346]

>  <assayTarget>
rat paw edema model

>  <unitName>
mL

>  <Change in Paw Volume>
1.17

$$$$
>  <compound>
O=C1COc2ccc(cc2)C[C@@H](C(=O)O)NC(=O)[C@H](CCc2ccccc2)NC(=O)[C@@H](Cc2ccc(-c3ccccc3)cc2)NC(=O)[C@H](Cc2cccs2)N1 [Compound 348]

>  <assayTarget>
rat paw edema model

>  <unitName>
mL

>  <Change in Paw Volume>
1.13

$$$$
>  <compound>
O=C1COc2ccc(cc2)C[C@@H](C(=O)N[C@@H](CCc2ccccc2)C(=O)O)NC(=O)[C@H](Cc2ccccc2)NC(=O)[C@@H](Cc2ccc(-c3ccccc3)cc2)NC(=O)[C@H](Cc2cccs2)N1 [Compound 393]

>  <assayTarget>
rat paw edema model

>  <unitName>
mL

>  <Change in Paw Volume>
1.27

$$$$

Ask: GET /values?readout=Change in Paw Volume&item= O=C(O)[C@@H]1Cc2ccc(cc2)NC(=O)[C@H](O)[C@@H](O)C(=O)N[C@H](Cc2cccs2)C(=O)N[C@@H](Cc2ccc(-c3ccncc3)cc2)C(=O)N[C@H](Cc2ccccc2)C(=O)N1 [Compound 330]
Reply: 1.20
